Measured HDAC3/HDAC6 in vitro selectivity, listed per entry for reference.
target: HDAC3 (Homo sapiens, UniProt O15379); construct: Recombinant, full-length HDAC protein (BPS Biosciences) was incubated with fluorophore conjugated substrate; purchased BPS Biosciences; test: In vitro HDAC enzyme inhibition assay, HDAC3; type: biochemical; settings: ratio of IC50 for HDAC3 relative to that of HDAC6
Sequence (O15379 whole entry): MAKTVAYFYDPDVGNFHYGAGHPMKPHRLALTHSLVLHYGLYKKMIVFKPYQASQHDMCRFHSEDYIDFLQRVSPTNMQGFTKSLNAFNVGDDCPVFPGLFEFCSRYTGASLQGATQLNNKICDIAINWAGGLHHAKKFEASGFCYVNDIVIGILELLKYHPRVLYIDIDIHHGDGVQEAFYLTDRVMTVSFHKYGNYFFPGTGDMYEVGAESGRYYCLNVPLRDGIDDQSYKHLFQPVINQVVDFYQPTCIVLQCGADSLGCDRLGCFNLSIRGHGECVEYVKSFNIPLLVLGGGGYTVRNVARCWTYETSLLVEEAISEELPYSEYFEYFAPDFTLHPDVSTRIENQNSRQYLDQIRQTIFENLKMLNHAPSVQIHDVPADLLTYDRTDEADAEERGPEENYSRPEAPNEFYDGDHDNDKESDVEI
Sequence (Q9Y618 395-489 partner limits assumed): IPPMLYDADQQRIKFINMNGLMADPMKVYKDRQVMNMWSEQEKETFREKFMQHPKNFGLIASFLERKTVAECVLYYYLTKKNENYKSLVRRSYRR
Answer using only a numeral; do not append any unit.

query: Query HDAC3/HDAC6 in vitro selectivity for O=C(NO)c1ccc(Cn2c(=O)[nH]c3cc(Cl)ccc32)cc1
result: 353

query: Using the record for O=C(NO)c1ccc(Cn2nnc3cc(F)ccc32)cc1 , state its measured HDAC3/HDAC6 in vitro selectivity.
result: 19646

query: Let me know recorded HDAC3/HDAC6 in vitro selectivity for O=C(NO)c1ccc(Cn2nnc3cc(Cl)ccc32)cc1 , thanks.
result: 3920

query: In one line, give reported HDAC3/HDAC6 in vitro selectivity of the entry O=C(NO)c1ccc(Cn2c(=O)[nH]c3cc(C(F)(F)F)ccc32)cc1 .
result: 2366

query: // fetch HDAC3/HDAC6 in vitro selectivity given entry O=C(NO)c1ccc(Cn2c(C(F)(F)F)nc3cc(Cl)ccc32)cc1
result: 1096

query: Report HDAC3/HDAC6 in vitro selectivity, nothing else, for this molecule: COc1ccc2c(c1)[nH]c(=O)n2Cc1ccc(C(=O)NO)cc1
result: 1236

query: Look up and state reported HDAC3/HDAC6 in vitro selectivity for Cc1ccc2c(c1)ncn2Cc1ccc(C(=O)NO)cc1
result: 1596

query: Look up HDAC3/HDAC6 in vitro selectivity of Cc1ccc2c(c1)[nH]c(=O)n2Cc1ccc(C(=O)NO)cc1 and report it.
result: 6310

query: Tell us which HDAC3/HDAC6 in vitro selectivity value is on record for O=C(NO)c1ccc(Cn2cnc3ccccc32)cc1
result: 4791

query: Consider the molecule O=C(NO)c1ccc(Cn2c(=O)[nH]c3cc(F)ccc32)cc1 . State its measured HDAC3/HDAC6 in vitro selectivity.
result: 6307
